tested on: A549 NSCLC; experiment: NCI tumour cell line growth inhibition, 48 h; in the data active = GI50 below about 0.43 µM; inactive = the rest
Outcomes: active, inactive

compound | target.or.system | class.name
CN(C)c1ccc(N=Nc2c([O-])ccc3ccccc23)cc1.[C-]#[O+].[C-]#[O+].[Ir] | A549 NSCLC | inactive
CC(C)OC(=O)c1ccc2[nH]c(O)c(C(=Nc3ccc(N(C)C(=O)CN4CCN(C)CC4)cc3)c3ccccc3)c2c1 | A549 NSCLC | active
COc1ccccc1-c1c(C)nn2c(NCc3ccccn3)cc(C)nc12 | A549 NSCLC | inactive
CCN1C(=O)N(CC)C2C1NN=c1s/c(=C3\C(=O)N(C)c4ccccc43)c(=O)n12 (centres undefined) | A549 NSCLC | inactive
O=C(NN1C(=O)CSC1c1ccc(Cl)cc1)c1[nH]c2ccc(F)cc2c1-c1ccccc1 (centres undefined) | A549 NSCLC | inactive
N#CC1C(N)=NNC12Nc1ccccc1N2 (centres undefined) | A549 NSCLC | inactive
Cn1cc(-c2ccc(CNc3cc(-c4cnc5cc(OCCCN6CCCC6)ccn45)ncn3)cc2)cn1 | A549 NSCLC | inactive
CS(=O)(=O)Nc1cc(-c2ccc3ncnc(Nc4ccc5c(cnn5Cc5ccc(F)cc5)c4)c3c2)cnc1Cl | A549 NSCLC | inactive
Fc1ccc(Nc2nccc(-c3c(-c4ccc(C(F)(F)F)cc4)nn4ncccc34)n2)cc1F | A549 NSCLC | inactive
